Assayed target: Solute carrier family 2, facilitated glucose transporter member 1 (Homo sapiens) (UniProt P11166)
Sequence (P11166 whole entry): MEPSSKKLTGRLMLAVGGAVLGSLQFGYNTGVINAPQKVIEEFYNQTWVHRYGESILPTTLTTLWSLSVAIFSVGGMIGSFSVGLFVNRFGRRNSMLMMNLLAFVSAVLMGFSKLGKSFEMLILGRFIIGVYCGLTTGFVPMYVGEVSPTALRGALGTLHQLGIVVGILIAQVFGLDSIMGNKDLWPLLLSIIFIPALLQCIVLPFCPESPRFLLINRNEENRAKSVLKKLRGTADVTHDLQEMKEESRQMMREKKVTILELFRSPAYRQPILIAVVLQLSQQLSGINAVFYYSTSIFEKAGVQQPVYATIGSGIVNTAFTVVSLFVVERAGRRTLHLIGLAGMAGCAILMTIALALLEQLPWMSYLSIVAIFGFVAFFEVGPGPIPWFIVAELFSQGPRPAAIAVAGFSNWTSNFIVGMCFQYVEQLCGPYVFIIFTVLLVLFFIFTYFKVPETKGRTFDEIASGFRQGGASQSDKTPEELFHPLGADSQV
Assay protocol: ST_JUDE_LEISH: Cytotoxicity at 2uM final concentration against transgenic Leishmania Mexicana promastigotes LmGLUT1 that are glucose transport deficient and complemented with the human glucose transporter GLUT1. Activity is measured by DNA content using SYBR green in vitro
Format: functional
Test readout: inhibition (%)
Answer in %, number only, no unit symbol.

Completed entries (count: 5):
Quick one: inhibition of CN(C)CCCN(C)C(=O)c1cc2cc(-c3ccccc3)ccc2n1S(=O)(=O)c1ccccc1 ?
5.31

Quick one: inhibition of COc1cccc2c1CCN(CCN1CCC(NC(=O)c3ccc(-c4cccc(Cl)c4Cl)cc3)CC1)C2 ?
6.67

Quick one: inhibition of CC(C)C[C@H](NC(=O)c1cc2ccccc2s1)C(=O)N[C@H]1CCN(Cc2ccc(OC3CCN(C)C3)c(Cl)c2)C1 (some centres undefined) ?
1.48

Quick one: inhibition of CCN1CCC(N(Cc2ccc(-c3ccc(C(F)(F)F)cc3)cc2)C(=O)Cn2c(SCc3cccc(F)c3F)cc(=O)c3ccccc32)C1 (centres undefined) ?
0.27

Quick one: inhibition of COc1cc(F)c2ncc(Cl)c(CCN3CCC(NCc4ccc5c(c4)NC(=O)CS5)CC3)c2c1 ?
15.1

Others:
Quick one: inhibition of NC1=NC(CCc2ccccc2)N(c2ccc(Cl)cc2)C(N)=N1 (centres undefined) ?
7.41

Quick one: inhibition of O=C(/C=C/c1ccc(Cl)c(Cl)c1)NC1CCC(CN2CCC(c3cc4ccccc4[nH]3)CC2)CC1 (centres undefined) ?
0.13

Quick one: inhibition of Cc1cc(-c2ccc(NC(=O)N3CCc4cc(Br)c(N5CCN(C)CC5)cc43)cc2)cc(C)n1 ?
9.14

Quick one: inhibition of O=C(CC1NC(=O)c2ccccc21)Nc1ccc(-c2ccc(-c3nc4cc(C(F)(F)F)ccc4[nH]3)cc2)cc1 (centres undefined) ?
4.68

Quick one: inhibition of Cc1cc(C2CCN(CCCCNC(=O)c3ccc(NC(=O)c4ccc(Cl)cc4)cc3)CC2)c(C)cc1OCCN(C)C ?
9.34

Quick one: inhibition of CCOc1ccccc1C1CCN(CCCCNC(=O)c2ccc(NC(=O)c3ccc(Cl)cc3)cc2)CC1 ?
10.6

Quick one: inhibition of Cc1cc(CNC(=O)[C@H](CC2CCCCC2)Nc2ccc(C#N)c3ccccc23)c(C(F)(F)F)o1 ?
1.15

Quick one: inhibition of CC(CN(C)C)C(=O)Nc1ccc(-c2ccc(-c3nc4cc(F)ccc4[nH]3)cc2)cc1 (centres undefined) ?
5.33

Quick one: inhibition of COc1cc(C=NN=c2cc(C)[nH]c3ccccc23)cc(OC)c1OC ?
3.56

Quick one: inhibition of CCOc1c(CNCCCNc2cc(O)c3ccccc3n2)cc(Br)cc1OC ?
7.77

Quick one: inhibition of Oc1ccc2ncnc(Nc3ccc(OCc4cccc(F)c4)c(Cl)c3)c2c1 ?
-2.81

Quick one: inhibition of O=C(Nc1cccc(CN2CCN(C(=O)c3ccccc3)CC2)c1)c1ccco1 ?
3.67

Quick one: inhibition of Cc1cccn2c(=O)c3cc(C(=O)NC(C)c4ccccc4)c(=N)n(CCc4ccccc4)c3nc12 (centres undefined) ?
12.2

Quick one: inhibition of Cc1cc(NC(=O)Nc2cccc(N(C)C)c2)c2ccccc2n1 ?
2.29

----------
Assayed target: Solute carrier family 2, facilitated glucose transporter member 1 (Homo sapiens)
Assay protocol: ST_JUDE_LEISH: Cytotoxicity at 2uM final concentration against transgenic Leishmania Mexicana promastigotes LmGLUT1 that are glucose transport deficient and complemented with the human glucose transporter GLUT1. Activity is measured by DNA content using SYBR green in vitro
Assay type: functional
Each item that follows carries a reported inhibition.
Answer in %, number only, no unit symbol.

Quick one: inhibition of CCc1c(CCNCCCCCCNC(C)(C)Cc2ccc3c(c2CC)OCO3)ccc(OC)c1OC ?
10

Quick one: inhibition of COc1ccc2nccc([C@@H](O)CN3CCC(NC(=O)c4nc(Cl)c(Cl)c(N)c4Cl)CC3)c2c1 ?
-0.09

Quick one: inhibition of CC(C)CNCc1ccc(-c2ccccc2CNC2CCN(Cc3ccccc3)CC2)cc1 ?
7.04

Quick one: inhibition of CCCCCCCN(Cc1ccc(OC(C)(C)C(=O)OCC)cc1)C(=O)Nc1ccccc1OC(F)(F)F ?
0

Quick one: inhibition of CCOCn1c(-c2ccccc2)cc2c3c(N)nc(N)nc3ccc21 ?
98.3

Quick one: inhibition of CCOc1cc(C(=O)NCc2cc(Cl)cc(Cl)c2)ccc1-c1nc2cc(Cl)ccc2[nH]1 ?
1.6

Continue with the next compound.
Quick one: inhibition of CC(=O)Nc1ccc(NC(=O)c2cc(-c3ccc(C)cc3O)n[nH]2)cc1 ?
-0.23

----------
Each item that follows carries a reported inhibition.
Assayed target: Solute carrier family 2, facilitated glucose transporter member 1 (Homo sapiens) (UniProt P11166)
Assay protocol: ST_JUDE_LEISH: Cytotoxicity at 2uM final concentration against transgenic Leishmania Mexicana promastigotes LmGLUT1 that are glucose transport deficient and complemented with the human glucose transporter GLUT1. Activity is measured by DNA content using SYBR green in vitro
Assay type: functional
Answer in %, number only, no unit symbol.

Completed entries (count: 5):
Quick one: inhibition of COc1cccc(OC)c1-c1ccccc1NC(=O)N1CCCc2cc(C)ccc21 ?
2.46

Quick one: inhibition of Clc1ccc(-c2cc(-c3csc(NCCN4CCCCC4)n3)on2)cc1 ?
6.93

Quick one: inhibition of CCOc1ccc(NC(=O)c2ccc(CN3CCCN(Cc4cccc(O)c4)CC3)cc2)cc1 ?
3.91

Quick one: inhibition of CCCCCN1CCC(NC(=O)c2ccc(C(=O)Nc3ccc(C(C)C)cc3)cc2)C1 (stereo unspecified) ?
1.74

Quick one: inhibition of Cc1nc(N)nc(N)c1-c1ccc(Br)cc1 ?
9.9

Others:
Quick one: inhibition of Cc1ccc(C)c(NC(=O)Nc2ccc(C)c(-c3ccc(C(=O)Nc4ccncc4)cc3)c2)c1 ?
6.08

Quick one: inhibition of Cc1[nH]c(C)c(-c2ccc(-c3ccc(Cl)cc3)nc2)c(=O)c1Br ?
-0.04

Quick one: inhibition of OCC1CCN(Cc2ccc(-c3ccc(-c4nc5cc(F)ccc5[nH]4)s3)cc2)CC1 ?
4.75

Quick one: inhibition of O=C(NCCCCN1CCC(O)(c2ccc3c(c2)OCO3)CC1)c1ccc(NC(=O)c2ccc(Cl)cc2)cc1 ?
-1.5

Quick one: inhibition of O=C1NC(c2ccccc2)C2(CCN(CC(O)COc3cccc4ncccc34)CC2)O1 (stereo unspecified) ?
2.46

Quick one: inhibition of O=C(Nc1cccc(C(F)(F)F)c1)c1cc([N+](=O)[O-])cc2cn[nH]c12 ?
6.35

Quick one: inhibition of Cc1noc(C)c1-c1ccc2c(Nc3ccc(C(F)(F)F)cc3)c(C(N)=O)cnc2c1 ?
3.49

Quick one: inhibition of COc1ccc(-n2ccnc2SCC(=O)Nc2cccc(C(F)(F)F)c2)c(OC)c1 ?
0.63

Quick one: inhibition of CCCCCCNC(=O)c1nn(CCN2CCC(N3CCCC3)CC2)cc1-c1ccc(Cl)c(Cl)c1 ?
0.97

Quick one: inhibition of CC(C)(C)Nc1cc(C(=O)N[C@@H](Cc2ccccc2)[C@H](O)CNC2CCOCC2)cc(N2CCCCS2(=O)=O)c1 ?
0.29

Quick one: inhibition of N#Cc1ccc(NC(=O)Nc2ccc(OC(F)(F)F)cc2)cc1 ?
2.17

Quick one: inhibition of CCNc1cc(C(=O)N[C@@H](Cc2ccccc2)[C@H](O)CNCc2ccc3c(c2)OCCO3)cc(N2CCCCS2(=O)=O)c1 ?
0.98

Quick one: inhibition of O=C(CC1CCCC1)Nc1ccc2c(c1)CCC2 ?
2.83

Quick one: inhibition of CN1C(=O)C(=NN=C(S)N2CCOCC2)c2ccccc21 ?
23.4

Quick one: inhibition of c1ccc2c(c1)cc(CNCCCN1CCN(CCCNCc3cc4ccccc4c4ccccc34)CC1)c1ccccc12 ?
-0.37

Quick one: inhibition of Cc1nc(C)c(-c2ccc(-c3ccc(F)cc3)cc2)c(O)c1Cl ?
1.77

----------
Assayed target: Glucose transporter (Leishmania mexicana) (UniProt O61059)
Assay protocol: ST_JUDE_LEISH: Cytotoxicity at 2uM final concentration against transgenic Leishmania Mexicana promastigotes LmGT2 that are glucose transport deficient and complemented with the L. Mexicana glucose transporter 2. Activity is measured by DNA content using SYBR green in vitro
Format: functional
Test readout: inhibition (%)
Answer in %, number only, no unit symbol.

Quick one: inhibition of CC(=O)Nc1cccc(C(=O)Nc2cccc(-c3csc(-c4nc5ccccc5[nH]4)c3)c2)c1 ?
3.14

Quick one: inhibition of O=C(Nc1ccc(Cl)cc1F)NC1CCN(CCCCCNC(=O)C2CC2c2ccc(Cl)c(Cl)c2)CC1 (centres undefined) ?
3.62

Quick one: inhibition of CC1(C)N=C(N)N=C(N)N1c1ccc(I)cc1 ?
6.6

Others:
Quick one: inhibition of CCCCOP(=O)(OCCCC)C(=Cc1ccc(O)c2ccccc12)P(=O)(OCCCC)OCCCC ?
5.24
